assay: Solubility in buffered/non-buffered media; conditions: phosphate buffer, pH 7.9
quantity.name: solubility (µg/mL)
Numbers only, in µg/mL.

-- ask What value of measured solubility is listed for CC(=O)N1CCN(c2ccc(OCC3COC(Cn4ccnc4)(c4ccc(Cl)cc4Cl)O3)cc2)CC1 (stereo not shown) ?
-- reply 1

---

assay: Ketoconazole solubility by pH adjustment with HCl (pH-solubility profile); format: physicochemical; conditions: suspension in distilled water, pH adjusted with HCl, pH 7.92, pH of suspension 7.92; 25 °C; pH lowered using HCl; read-out: Solubility
quantity.name: solubility (µg/mL)
Answers are plain numbers, in µg/mL.

-- ask What value of measured solubility is listed for CC(=O)N1CCN(c2ccc(OCC3COC(Cn4ccnc4)(c4ccc(Cl)cc4Cl)O3)cc2)CC1 (stereo not shown) [ketoconazole] ?
-- reply 3

---

Assay: Ketoconazole solubility by pH adjustment with HCl (pH-solubility profile)
Assay type: physicochemical
Settings: suspension in distilled water, pH adjusted with HCl, pH 3.67, pH of suspension 3.67; 25 °C; pH lowered using HCl; read-out: Solubility
Protocol: Multiple vials were prepared using different concentration of HCl solutions (0.001M to 1M) so that different pH values could be attained, and, when needed, more amount of free base was added to maintain excess solid in the vials. […] Additional HCl solution and excess ketoconazole were added to the suspension in vial and shaken for another pH point, and the process was repeated until enough points on the pH scale were obtained. […]
quantity.name: solubility (µg/mL)
Numbers only, in µg/mL.

-- ask What value of measured solubility is listed for CC(=O)N1CCN(c2ccc(OCC3COC(Cn4ccnc4)(c4ccc(Cl)cc4Cl)O3)cc2)CC1 (stereo not shown) ?
-- reply 3030

---

assay: Ketoconazole solubility by pH adjustment with HCl (pH-solubility profile); format: physicochemical; conditions: suspension in distilled water, pH adjusted with HCl, pH 3.71, pH of suspension 3.71; 25 °C; pH lowered using HCl; read-out: Solubility
quantity.name: solubility
Hey, just the number and the unit after it is fine.

-- ask What value of measured solubility is listed for CC(=O)N1CCN(c2ccc(OCC3COC(Cn4ccnc4)(c4ccc(Cl)cc4Cl)O3)cc2)CC1 (stereo not shown) [ketoconazole] ?
-- reply 2780 µg/mL

---

assay: Ketoconazole solubility by pH adjustment with HCl (pH-solubility profile); assay type: physicochemical; conditions: suspension in distilled water, pH adjusted with HCl, pH 8.49, pH of suspension 8.49; 25 °C; pH lowered using HCl; read-out: Solubility
quantity.name: solubility (µg/mL)
Numbers only, in µg/mL.

-- ask What value of measured solubility is listed for CC(=O)N1CCN(c2ccc(OCC3COC(Cn4ccnc4)(c4ccc(Cl)cc4Cl)O3)cc2)CC1 (stereo not shown) [ketoconazole] ?
-- reply 2

---

assay: Ketoconazole solubility by pH adjustment with HCl (pH-solubility profile); format: physicochemical; details: suspension in distilled water, pH adjusted with HCl, 25 °C, pH 7.12, aqueous buffer, thermodynamic from solid, pH of suspension 7.12, pH lowered using HCl, read-out: Solubility
quantity.name: solubility (µg/mL)
Answers are plain numbers, in µg/mL.

-- ask What value of measured solubility is listed for CC(=O)N1CCN(c2ccc(OCC3COC(Cn4ccnc4)(c4ccc(Cl)cc4Cl)O3)cc2)CC1 (stereo not shown) [ketoconazole] ?
-- reply 5

---

assay: Solubility in buffered/non-buffered media; conditions: acetate buffer, 25 °C, pH 5, aqueous buffer, thermodynamic from solid
quantity.name: solubility (µg/mL)
One number for each entry, in µg/mL.

-- ask What value of measured solubility is listed for CC(=O)N1CCN(c2ccc(OCC3COC(Cn4ccnc4)(c4ccc(Cl)cc4Cl)O3)cc2)CC1 (stereo not shown) ?
-- reply 130

---

assay: Ketoconazole solubility by pH adjustment with HCl (pH-solubility profile); assay type: physicochemical; details: suspension in distilled water, pH adjusted with HCl, 25 °C, pH 3.1, aqueous buffer, thermodynamic from solid, pH of suspension 3.1, pH lowered using HCl, read-out: Solubility
quantity.name: solubility (mg/mL)
Answers are plain numbers, in mg/mL.

-- ask What value of measured solubility is listed for CC(=O)N1CCN(c2ccc(OCC3COC(Cn4ccnc4)(c4ccc(Cl)cc4Cl)O3)cc2)CC1 (stereo not shown) ?
-- reply 148

---

assay: Ketoconazole solubility by pH adjustment with HCl (pH-solubility profile); assay type: physicochemical; conditions: suspension in distilled water, pH adjusted with HCl, 25 °C, pH 4.95, aqueous buffer, thermodynamic from solid, pH of suspension 4.95, pH lowered using HCl, read-out: Solubility
quantity.name: solubility (µg/mL)
One number for each entry, in µg/mL.

-- ask What value of measured solubility is listed for CC(=O)N1CCN(c2ccc(OCC3COC(Cn4ccnc4)(c4ccc(Cl)cc4Cl)O3)cc2)CC1 (stereo not shown) [ketoconazole] ?
-- reply 178

---

Assay: Solubility in buffered/non-buffered media
Settings: HCl/KCl buffer, 25 °C, pH 2.1, simulated gastric fluid, thermodynamic from solid
Method: Cocrystal solubilities were determined at pH 1 solution (0.1 M HCl), pH 2 HCl buffer), pH 5 acetate buffer and pH 8 phosphate buffer. Buffers were prepared according to the United States Pharmacopeia (USP) procedures. […] Aliquots were filtered by 0.45-micron PVDF filter and analyzed by HPLC. The solid phase was analyzed by Raman spectroscopy.
quantity.name: solubility

-- ask What value of measured solubility is listed for CC(=O)N1CCN(c2ccc(OCC3COC(Cn4ccnc4)(c4ccc(Cl)cc4Cl)O3)cc2)CC1 (stereo not shown) ?
-- reply ~3400 µg/mL

---

assay: Ketoconazole solubility with fumaric/succinic acid and 1:1 physical mixtures with coformers; format: physicochemical; conditions: water, thermodynamic from solid; 1:1 ketoconazole-fumaric acid mixture; equilibrated 4 h; no conversion to cocrystal; 25 °C
quantity.name: solubility at 4 h

-- ask What value of measured solubility at 4 h is listed for CC(=O)N1CCN(c2ccc(OCC3COC(Cn4ccnc4)(c4ccc(Cl)cc4Cl)O3)cc2)CC1 (stereo not shown) [ketoconazole] ?
-- reply ~7000 µg/mL

---

test: Solubility in buffered/non-buffered media; details: 0.1 M HCl, 25 °C, pH 1.1, simulated gastric fluid, thermodynamic from solid
quantity.name: solubility

-- ask What value of measured solubility is listed for CC(=O)N1CCN(c2ccc(OCC3COC(Cn4ccnc4)(c4ccc(Cl)cc4Cl)O3)cc2)CC1 (stereo not shown) ?
-- reply ~27 mg/mL

---

experiment: Ketoconazole solubility by pH adjustment with HCl (pH-solubility profile); assay type: physicochemical; settings: suspension in distilled water, pH adjusted with HCl, 25 °C, pH 3.37, aqueous buffer, thermodynamic from solid, pH of suspension 3.37, pH lowered using HCl, read-out: Solubility
quantity.name: solubility

-- ask What value of measured solubility is listed for CC(=O)N1CCN(c2ccc(OCC3COC(Cn4ccnc4)(c4ccc(Cl)cc4Cl)O3)cc2)CC1 (stereo not shown) ?
-- reply 7100 µg/mL

---

assay: Ketoconazole solubility by pH adjustment with HCl (pH-solubility profile); assay type: physicochemical; settings: suspension in distilled water, pH adjusted with HCl, 25 °C, pH 4.48, aqueous buffer, thermodynamic from solid, pH of suspension 4.48, pH lowered using HCl, read-out: Solubility
quantity.name: solubility (µg/mL)
Answers are plain numbers, in µg/mL.

-- ask What value of measured solubility is listed for CC(=O)N1CCN(c2ccc(OCC3COC(Cn4ccnc4)(c4ccc(Cl)cc4Cl)O3)cc2)CC1 (stereo not shown) [ketoconazole] ?
-- reply 345

---

assay: Ketoconazole solubility by pH adjustment with HCl (pH-solubility profile); format: physicochemical; settings: suspension in distilled water, pH adjusted with HCl, 25 °C, pH 4.28, aqueous buffer, thermodynamic from solid, pH of suspension 4.28, pH lowered using HCl, read-out: Solubility
quantity.name: solubility (µg/mL)
Numbers only, in µg/mL.

-- ask What value of measured solubility is listed for CC(=O)N1CCN(c2ccc(OCC3COC(Cn4ccnc4)(c4ccc(Cl)cc4Cl)O3)cc2)CC1 (stereo not shown) ?
-- reply 729

---

assay: Ketoconazole solubility by pH adjustment with HCl (pH-solubility profile); type: physicochemical; conditions: suspension in distilled water, pH adjusted with HCl, 25 °C, pH 3.35, aqueous buffer, thermodynamic from solid, pH of suspension 3.35, pH lowered using HCl, read-out: Solubility
quantity.name: solubility (µg/mL)
Numbers only, in µg/mL.

-- ask What value of measured solubility is listed for CC(=O)N1CCN(c2ccc(OCC3COC(Cn4ccnc4)(c4ccc(Cl)cc4Cl)O3)cc2)CC1 (stereo not shown) ?
-- reply 5460

---

Experiment: Ketoconazole solubility by pH adjustment with HCl (pH-solubility profile)
Format: physicochemical
Details: suspension in distilled water, pH adjusted with HCl, 25 °C, pH 4.56, aqueous buffer, thermodynamic from solid, pH of suspension 4.56, pH lowered using HCl, read-out: Solubility
Protocol: Multiple vials were prepared using different concentration of HCl solutions (0.001M to 1M) so that different pH values could be attained, and, when needed, more amount of free base was added to maintain excess solid in the vials. […] Additional HCl solution and excess ketoconazole were added to the suspension in vial and shaken for another pH point, and the process was repeated until enough points on the pH scale were obtained. […]
quantity.name: solubility (µg/mL)
Numbers only, in µg/mL.

-- ask What value of measured solubility is listed for CC(=O)N1CCN(c2ccc(OCC3COC(Cn4ccnc4)(c4ccc(Cl)cc4Cl)O3)cc2)CC1 (stereo not shown) ?
-- reply 354
